Test system: MS2 coat protein
Experiment: apparent KD of MS2 coat protein; designed switch direction (-1 OFF switch, 1 ON switch): -1; higher = weaker reporter binding
Conditions: input ligand: FMN 200 uM
apparent KD of MS2 coat protein: recorded values

[
  {
    "SEQUENCE INPUT": "AGAUUGCAUGAGGAUAUCGUAUUAGAUAUAAUGCGAGAAGGCAUGACAUGAGGAUCACCCAUGUAGUGUUGGGA [JR_Ex6_Sub012] (Eterna round: R97, puzzle: Exclusion 6)",
    "apparent KD of MS2 coat protein / nM": 75.1
  },
  {
    "SEQUENCE INPUT": "AGUUGGCGAGGAUAUACAUGAGGAUCACCCAUGUGAAAUCGAGAAAAAAUAGGGAAAAGUAGAAGGCGCAGACA [Ruby 63] (Eterna round: R96, puzzle: Exclusion 3)",
    "apparent KD of MS2 coat protein / nM": 28.2
  },
  {
    "SEQUENCE INPUT": "CCUCUACAUGAGGAUCACCCAUGUGAGGAUAUGUUGACGAGCCAGAAAUGGCUGGUCAACAGAAGGCAUAUGUA [Exclusion 1 (Mod 2.1 solution 16 by Eternabot)] (Eterna round: R97, puzzle: Exclusion 1)",
    "apparent KD of MS2 coat protein / nM": 43.7
  },
  {
    "SEQUENCE INPUT": "GUACCCAAAGGAUAUACUUGAGGAUCACCCAAGUAUGUCGCUUGGGCACGGUAAAGGAGUAGAAGGUUGGGAAG [Aedti] (Eterna round: R97, puzzle: Exclusion 3)",
    "apparent KD of MS2 coat protein / nM": 12.5
  },
  {
    "SEQUENCE INPUT": "UGUCUUGCAGGAUAUCAUGUGAUAUACAUGAGGAUCACCCAUGUUAGCCUCAUGAGCGUCUGAGAAGGGUAAGACG [Eternabot (L2) Solution 22] (Eterna round: R97, puzzle: Exclusion 5)",
    "apparent KD of MS2 coat protein / nM": 131
  }
]
